Data provenance: patent US10975056B2

- assayedTarget: UniProt:Q9UBC3
- procedureSummary: DNMT3B breaklight assay
- Type: biochemical
- conditionLabel: read-out: DNMT3B Breaklight IC50
reportedEndpoint: IC50 (µM)

1: CCc1c(C#N)c(SC(C(N)=O)c2ccccc2)nc(N2CCC(C)(N)CC2)c1C#N (centres unmarked)
2: CCc1c(C#N)c(SC(C(N)=O)c2ccccc2)nc(N2CCC3(CCCN(C)C3)CC2)c1C#N (centres unmarked)
Ask | // compare: 1 vs 2 , metric IC50, want the smaller Give the label under which the chosen entry appears.
Reply | 2
(2: 124 µM, 1: 379 µM)

* * *

Consider the following compounds and their measured EC50 readings.
- System: erythroid progenitor cells (EPCs)
- procedureSummary: Fetal hemoglobin (HbF) ELISA in day 7 erythroid progenitor cells;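 further: for fetal hemoglobin induction normalized to vehicle-treated cells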
- Assay type: cell-based, human
- conditionLabel: Homo sapiens, Erythroid progenitor cell, HbF ELISA, day 7 EPCs, 5 days; read-out: EPC ELISA (pEC50 category) (converted)

Form field, EC50 with erythroid progenitor cells (EPCs), item CCc1c(C#N)c(SC(C(N)=O)c2ccccc2)nc(N2CCC(N(C)CCO)CC2)c1C#N (stereo not shown) : < 316 nM

Form field, EC50 with erythroid progenitor cells (EPCs), item CCc1c(C#N)c(SC(C(N)=O)c2cccnc2F)nc(N2CCCN(C)CC2)c1C#N (stereo not shown) : 316 to 1000 nM

Form field, EC50 with erythroid progenitor cells (EPCs), item CCc1c(C#N)c(SCc2ccc(NS(C)(=O)=O)cc2)nc(N2CCCN(C)CC2)c1C#N : 316 to 1000 nM

Form field, EC50 with erythroid progenitor cells (EPCs), item CN(C)c1nc(SC(C(N)=O)c2ccncc2)c(C#N)c(C2CC2)c1C#N (stereo not shown) : > 31600 nM

Form field, EC50 with erythroid progenitor cells (EPCs), item N#Cc1c(SC(C(N)=O)c2ccncc2)nc(N2CCNCC2)c(C#N)c1C1CC1 (stereo not shown) : > 31600 nM

Form field, EC50 with erythroid progenitor cells (EPCs), item N#Cc1c(SC(C(N)=O)c2ccccc2)nc(N2CCNC(=O)C2)c(C#N)c1C1CC1 (stereo not shown) : 1000 to 31600 nM

Form field, EC50 with erythroid progenitor cells (EPCs), item CCc1c(C#N)c(SC(C(N)=O)c2ccccc2)nc(N(C)CCN2CCCCC2)c1C#N (stereo not shown) : < 316 nM

Form field, EC50 with erythroid progenitor cells (EPCs), item CCc1c(C#N)c(SCc2ccc(NS(C)(=O)=O)cc2)nc(N(C)C)c1C#N : 1000 to 31600 nM

* * *

- assayedTarget: DNMT1 (Homo sapiens, UniProt P26358)
- Sequence (P26358 whole entry, looked up): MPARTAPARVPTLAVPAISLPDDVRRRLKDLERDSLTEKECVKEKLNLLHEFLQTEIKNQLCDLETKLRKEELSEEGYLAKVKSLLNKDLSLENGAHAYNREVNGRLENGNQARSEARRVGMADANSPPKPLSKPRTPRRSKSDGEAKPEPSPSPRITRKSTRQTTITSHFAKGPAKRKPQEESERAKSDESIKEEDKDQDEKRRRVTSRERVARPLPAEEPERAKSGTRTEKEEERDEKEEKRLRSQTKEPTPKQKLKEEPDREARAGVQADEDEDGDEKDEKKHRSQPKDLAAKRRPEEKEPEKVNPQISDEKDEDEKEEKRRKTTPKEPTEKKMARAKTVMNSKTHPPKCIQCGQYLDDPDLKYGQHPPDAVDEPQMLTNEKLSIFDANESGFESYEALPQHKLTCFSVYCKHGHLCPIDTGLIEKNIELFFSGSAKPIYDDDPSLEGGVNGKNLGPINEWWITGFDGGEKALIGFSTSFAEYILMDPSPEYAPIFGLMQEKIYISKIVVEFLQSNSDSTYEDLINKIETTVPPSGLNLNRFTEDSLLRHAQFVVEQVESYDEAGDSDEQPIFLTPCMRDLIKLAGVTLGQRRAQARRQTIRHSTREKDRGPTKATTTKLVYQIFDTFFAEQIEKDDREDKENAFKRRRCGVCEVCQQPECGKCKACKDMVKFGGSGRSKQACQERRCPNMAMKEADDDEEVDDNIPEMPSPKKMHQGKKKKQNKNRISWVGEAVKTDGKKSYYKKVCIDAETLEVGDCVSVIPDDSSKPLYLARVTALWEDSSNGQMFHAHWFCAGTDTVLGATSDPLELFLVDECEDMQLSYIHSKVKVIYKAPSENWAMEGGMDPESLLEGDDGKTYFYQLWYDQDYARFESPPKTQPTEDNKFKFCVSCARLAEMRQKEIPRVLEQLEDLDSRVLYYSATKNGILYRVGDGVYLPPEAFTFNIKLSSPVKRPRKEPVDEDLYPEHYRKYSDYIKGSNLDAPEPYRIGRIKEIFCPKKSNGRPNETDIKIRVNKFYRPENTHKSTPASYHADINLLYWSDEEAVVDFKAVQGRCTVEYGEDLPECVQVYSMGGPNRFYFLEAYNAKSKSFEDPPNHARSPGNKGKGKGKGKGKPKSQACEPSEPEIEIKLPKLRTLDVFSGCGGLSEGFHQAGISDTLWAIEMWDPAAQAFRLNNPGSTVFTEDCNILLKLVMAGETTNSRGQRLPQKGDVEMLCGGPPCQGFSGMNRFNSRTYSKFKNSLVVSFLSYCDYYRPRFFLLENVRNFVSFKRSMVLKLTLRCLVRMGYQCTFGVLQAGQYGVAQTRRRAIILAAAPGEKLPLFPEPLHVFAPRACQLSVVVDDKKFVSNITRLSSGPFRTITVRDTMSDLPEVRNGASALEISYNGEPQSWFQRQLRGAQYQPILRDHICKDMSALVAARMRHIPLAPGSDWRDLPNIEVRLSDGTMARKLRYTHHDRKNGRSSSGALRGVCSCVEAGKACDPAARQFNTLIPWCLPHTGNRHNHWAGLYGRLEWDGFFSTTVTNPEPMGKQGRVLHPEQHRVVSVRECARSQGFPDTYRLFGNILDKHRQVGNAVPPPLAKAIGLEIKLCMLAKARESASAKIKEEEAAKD
- procedureSummary: DNMT1 biochemical activity, breaklight assay and/or SPA assay
- conditionLabel: binned activity in either the breaklight or the SPA assay

{"columns": ["compound", "DNMT1 BioChemical (pIC50 category)"],
 "data": [
  ["CCc1c(C#N)c(SC(C(N)=O)c2ccccc2)nc(N(C)CCN2CCC(O)(CN)CC2)c1C#N (stereo not shown)", "D (Category D: ≥6.5)"],
  ["C[C@H](N)C(=O)NC1CCN(c2nc(SC(C(N)=O)c3ccccc3)c(C#N)c(C3CC3)c2C#N)CC1 (stereo partly shown)", "D (Category D: ≥6.5)"],
  ["CCc1c(C#N)c(SC(C(N)=O)c2ccc(F)cc2)nc(N(C)C)c1C#N (stereo not shown)", "D (Category D: ≥6.5)"],
  ["CCc1c(C#N)c(SC(C(N)=O)c2ccccc2)nc(N2CCCN(CC(O)CO)CC2)c1C#N (stereo not shown)", "D (Category D: ≥6.5)"]
]}

* * *

- Tested on: erythroid progenitor cells (EPCs)
- procedureSummary: Fetal hemoglobin (HbF) ELISA in day 7 erythroid progenitor cells;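 further: for fetal hemoglobin induction normalized to vehicle-treated cells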
- Format: cell-based, human
- conditionLabel: Homo sapiens, Erythroid progenitor cell, HbF ELISA, day 7 EPCs, 5 days; read-out: EPC ELISA (pEC50 category) (converted)
reportedEndpoint: EC50

Some entries whose results are on file:
{"columns": ["compound", "EC50"],
 "data": [
  ["C[C@H](N)C(=O)NC1CCN(c2nc(SC(C(N)=O)c3ccccc3)c(C#N)c(C3CC3)c2C#N)CC1 (stereo partly shown)", "316 to 1000 nM"],
  ["CCc1c(C#N)c(S[C@@H](C(N)=O)c2ccccc2)nc(N2CCOCC2)c1C#N", "1000 to 31600 nM"],
  ["CCc1c(Cl)c(SC(C(N)=O)c2ccccc2)nc(N2CCNCC2)c1Cl (stereo not shown)", "> 31600 nM"]
]}

Looking up CN1CCN(C2CCN(c3nc(SC(C(N)=O)c4ccccc4)c(C#N)c(C4CC4)c3C#N)CC2)CC1 (stereo not shown) , I see its EC50 listed as < 316 nM

Looking up CCc1c(C#N)c(SC(C(N)=O)c2ccccc2)nc(N(C)CCN(C)CC)c1C#N (stereo not shown) , I see its EC50 listed as < 316 nM

* * *

- assayedTarget: human DNMT3a/3l (Homo sapiens (Human), UniProt Q9Y6K1)
- Sequence (Q9Y6K1 whole entry, looked up): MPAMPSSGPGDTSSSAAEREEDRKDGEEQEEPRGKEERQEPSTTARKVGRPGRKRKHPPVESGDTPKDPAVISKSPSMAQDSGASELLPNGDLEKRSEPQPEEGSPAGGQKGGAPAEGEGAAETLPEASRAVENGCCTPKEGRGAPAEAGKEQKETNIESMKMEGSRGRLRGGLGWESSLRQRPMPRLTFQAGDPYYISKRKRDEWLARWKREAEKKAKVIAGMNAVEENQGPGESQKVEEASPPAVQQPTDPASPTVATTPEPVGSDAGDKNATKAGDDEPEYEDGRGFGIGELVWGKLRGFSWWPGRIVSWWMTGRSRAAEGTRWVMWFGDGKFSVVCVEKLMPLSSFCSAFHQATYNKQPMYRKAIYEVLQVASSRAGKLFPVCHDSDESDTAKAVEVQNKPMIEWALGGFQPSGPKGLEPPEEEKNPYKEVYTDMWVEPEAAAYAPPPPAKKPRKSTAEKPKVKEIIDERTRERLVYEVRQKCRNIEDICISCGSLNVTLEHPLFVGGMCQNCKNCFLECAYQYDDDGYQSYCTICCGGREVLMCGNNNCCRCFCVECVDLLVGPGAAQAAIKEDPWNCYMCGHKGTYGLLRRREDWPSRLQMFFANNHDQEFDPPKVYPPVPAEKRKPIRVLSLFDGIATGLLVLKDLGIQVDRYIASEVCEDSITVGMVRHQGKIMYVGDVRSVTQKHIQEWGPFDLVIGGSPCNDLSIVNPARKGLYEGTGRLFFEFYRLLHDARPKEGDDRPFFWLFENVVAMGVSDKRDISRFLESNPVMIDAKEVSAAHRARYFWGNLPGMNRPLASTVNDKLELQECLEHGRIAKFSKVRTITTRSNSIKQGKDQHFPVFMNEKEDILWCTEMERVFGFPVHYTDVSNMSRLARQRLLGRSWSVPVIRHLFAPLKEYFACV
- Sequence (Q9UJW3 whole entry partner, looked up): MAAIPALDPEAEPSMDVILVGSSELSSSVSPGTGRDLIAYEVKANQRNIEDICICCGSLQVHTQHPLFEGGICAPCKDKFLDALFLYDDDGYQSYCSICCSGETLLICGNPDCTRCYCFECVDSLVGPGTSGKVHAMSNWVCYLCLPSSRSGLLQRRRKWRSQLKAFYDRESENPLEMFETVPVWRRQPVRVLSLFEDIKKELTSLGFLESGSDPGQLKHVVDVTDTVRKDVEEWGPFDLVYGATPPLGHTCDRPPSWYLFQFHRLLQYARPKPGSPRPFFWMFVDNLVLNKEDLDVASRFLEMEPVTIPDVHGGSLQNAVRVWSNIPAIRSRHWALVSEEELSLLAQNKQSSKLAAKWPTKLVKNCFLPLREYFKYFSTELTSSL
- procedureSummary: DNMT3a/3l breaklight assay
- Type: biochemical
- conditionLabel: read-out: DNMT3A Breaklight IC50
Consider the following compounds and their measured IC50 readings.

{"columns": ["compound", "recordedValue"],
 "data": [
  ["CCc1c(C#N)c(SC(C(N)=O)c2ccccc2)nc(N2CCCNCC2)c1C#N (centres unmarked) [Example 112]", "> 500 µM"],
  ["CCc1c(C#N)c(SC(C(N)=O)c2ccccc2)nc(N2CCCN(CCOC)CC2)c1C#N (centres unmarked) [Example 106]", "> 500 µM"],
  ["CCc1c(C#N)c(N)nc(S[C@@H](C(N)=O)c2ccccc2)c1C#N [Example 2]", "> 500 µM"],
  ["CCc1c(C#N)c(SC(C(N)=O)c2ccccc2)nc(N(C)CCOC)c1C#N (centres unmarked) [Example 53]", "> 500 µM"]
]}

Moving on to the next compound.
Looking up CCc1c(C#N)c(NC)nc(SC(C(N)=O)c2ccccc2)c1C#N (centres unmarked) [Example 52] , I see its IC50 listed as > 500 µM

* * *

- System: erythroid progenitor cells (EPCs)
- procedureSummary: Fetal hemoglobin (HbF) ELISA in day 7 erythroid progenitor cells;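 further: for fetal hemoglobin induction normalized to vehicle-treated cells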
- Type: cell-based, human
- conditionLabel: Homo sapiens, Erythroid progenitor cell, HbF ELISA, day 7 EPCs, 5 days; read-out: EPC ELISA (pEC50 category) (converted)
Consider the following compounds and their measured EC50 readings.

Some entries whose results are on file:
{"columns": ["compound", "assayedTarget", "EC50"],
 "data": [
  ["CC1CN(c2nc(SC(C(N)=O)c3ccccc3)c(C#N)c(C3CC3)c2C#N)CC(C)N1 (stereo not shown)", "erythroid progenitor cells (EPCs)", "< 316 nM"],
  ["CCc1c(C#N)c(SC(C(N)=O)c2ccccc2)nc(N2CCC(NCC(F)F)CC2)c1C#N (stereo not shown)", "erythroid progenitor cells (EPCs)", "< 316 nM"],
  ["CCc1c(C#N)c(SC(C(N)=O)c2cccc(P(C)(C)=O)c2)nc(N(C)C)c1C#N (stereo not shown)", "erythroid progenitor cells (EPCs)", "1000 to 31600 nM"]
]}

Moving on to the next compound.
Form field, EC50 with erythroid progenitor cells (EPCs), item CCc1c(C#N)c(SC(C(N)=O)c2ccccc2)nc(N2CCCN(CCOC)CC2)c1C#N (stereo not shown) : < 316 nM

* * *

- System: erythroid progenitor cells (EPCs)
- procedureSummary: Fetal hemoglobin (HbF) ELISA in day 7 erythroid progenitor cells;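 further: for fetal hemoglobin induction normalized to vehicle-treated cells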
- Type: cell-based, human
- conditionLabel: Homo sapiens, Erythroid progenitor cell, HbF ELISA, day 7 EPCs, 5 days; read-out: EPC ELISA (pEC50 category) (converted)
Consider the following compounds and their measured EC50 readings.

Some entries whose results are on file:
{"columns": ["compound", "assayedTarget", "EC50"],
 "data": [
  ["CCc1c(C#N)c(SC(C(N)=O)c2ccc(S(=O)(=O)NC)cc2)nc(N2CCCN(C)CC2)c1C#N (stereo not shown) [Example 378]", "erythroid progenitor cells (EPCs)", "1000 to 31600 nM"],
  ["CCc1c(C#N)c(SC(C(N)=O)c2ccccc2)nc(N2CCCN(C)CC2)c1C#N (stereo not shown) [Example 56]", "erythroid progenitor cells (EPCs)", "< 316 nM"]
]}

Looking up CCc1c(C#N)c(SC(C(N)=O)c2ccc(F)cc2F)nc(N2CCC(N(C)C)CC2)c1C#N (stereo not shown) [Example 210] , I see its EC50 listed as < 316 nM

Looking up CCc1c(C#N)c(SCc2ccc(CNC(=O)CO)cc2)nc(N(C)CC(N)=O)c1C#N [Example 371] , I see its EC50 listed as 1000 to 31600 nM

* * *

Consider the following molecules and their measured EC50 readings.
- Tested on: erythroid progenitor cells (EPCs)
- procedureSummary: Fetal hemoglobin (HbF) ELISA in day 7 erythroid progenitor cells;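 further: for fetal hemoglobin induction normalized to vehicle-treated cells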
- Type: cell-based, human
- conditionLabel: Homo sapiens, Erythroid progenitor cell, HbF ELISA, day 7 EPCs, 5 days; read-out: EPC ELISA (pEC50 category) (converted)

Some entries whose results are on file:
{"columns": ["molecule", "EC50"],
 "data": [
  ["CCc1c(C#N)c(SC(C(N)=O)c2ccccc2)nc(N(C)CCNCCF)c1C#N (centres unmarked)", "1 to 31.6 µM"],
  ["N#Cc1c(SC(C(N)=O)c2ccccc2)nc(N2CC(NC(=O)[C@H](N)CO)C2)c(C#N)c1C1CC1 (some centres unmarked)", "1 to 31.6 µM"],
  ["CCc1c(C#N)c(SC(C(N)=O)c2ccccc2)nc(N2CCC(NC(=O)OC(C)(C)C)C(F)(F)C2)c1C#N (centres unmarked)", "0.316 to 1 µM"],
  ["CCc1c(C#N)c(SC(C(N)=O)c2ccccc2)nc(N(C)Cc2n[nH]c(=O)[nH]2)c1C#N (centres unmarked)", "1 to 31.6 µM"]
]}

Looking up CCc1c(C#N)c(SC(C(N)=O)c2ccccc2)nc(N2CCNC(C)CC2)c1C#N (centres unmarked) , I see its EC50 listed as < 0.316 µM

Looking up CCc1c(C#N)c(SC(C(N)=O)c2ccccc2)nc(N2CCC(O)CC2)c1C#N (centres unmarked) , I see its EC50 listed as 1 to 31.6 µM

Looking up N#Cc1c(SC(C(N)=O)c2ccccc2)nc(N2CCC[C@H](O)C2)c(C#N)c1C1CC1 (some centres unmarked) , I see its EC50 listed as 0.316 to 1 µM

Looking up CCc1c(C#N)c(S[C@@H](C(N)=O)c2ccccc2)nc(N2CCO[C@H](CNC(=O)CO)C2)c1C#N , I see its EC50 listed as 1 to 31.6 µM
